B1: tRNA (parent)
chain: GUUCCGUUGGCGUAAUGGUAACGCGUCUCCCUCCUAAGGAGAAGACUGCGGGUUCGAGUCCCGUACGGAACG

Variants of: B1
Assay: yeast fitness relative to wild type (ratio to wild type); higher = fitter; tRNA-Arg(CCU), competitive growth, 37 C, YPD
Variants at the floor of the assay were thinned out.
Metric: yeast fitness
Answer with a bare number; do not write a unit.

The examples below pair each entry with its known result.
Mutation key | yeast fitness
U8C G67C | 0.953
C5A U8C | 0.929
C5A G67U | 0.865

Form field: reported yeast fitness of C27U
0.995

# repeat for C11U G25A C62G
0.569

# repeat for U2C C29A C34G A43U G52A
0.682

# repeat for A20C A42C G48A
0.591

# repeat for A37C C66A
0.659
